Kindly supply the reported Relative amount of synthesized cholesterol (%) values for the records listed here.
Tested on: cholesterol synthesis in liver slices
Experiment: Cholesterol synthesis from [1-14C] acetic acid in liver slices (Experimental Example 2)
Type: cell-based, male Wistar rats
Details: drug final concentration 0.1-1.0 mM, 37° C., 120 minutes; control 100; Table 2
Procedure: Liver slices (0.5 mm) were prepared from male Wistar rats 5 weeks old acclimated for 10 days in a bright/dark inversion raising chamber (bright period: 8:00 p.m.-8:00 a.m.). […] Incubation was carried out at 37° C. for 120 minutes in 95% oxygen and 5% carbon dioxide. […] After the supernatant was discarded, the precipitate was dissolved in methanol and its radioactivity was measured.
Answers are plain numbers, in %.

For every record below, what is its Relative amount of synthesized cholesterol (%)?
1. CCOC(C)O[C@@H]1OC=C(C(=O)OC)[C@H]2CC=C(C=O)[C@@H]12 (stereo partly shown)
2. COC(=O)C1=COC(=O)[C@@H]2[C@H](C)CC[C@H]12
3. CC(=O)O[C@@H]1OC=C(CO)[C@H]2CC=C(CO)[C@@H]12
4. COC(=O)C1=COC(OC(=O)c2ccccc2)C2C(C)=CCC12 (stereo not shown)
5. COC(=O)C1=COC(O)[C@@H]2C(C=O)=CC[C@H]12 (stereo partly shown)
6. COC(=O)C1=CO[C@@H](OC(C)=O)[C@@H]2C(C)=CC[C@H]12
7. COC(=O)C1=CO[C@@H](OC(C)=O)[C@H]2[C@@H]1CC1OCC12OC(C)=O (stereo partly shown)

86.2
96.2
73.5
72.4
80.1
72.8
50.1
